Tested on: HCT-116 colon
Test: NCI-60 one-dose screen, 48 h (100 = growth as untreated, 0 = no growth, -100 = all killed)
Settings: 10 µM unless noted
Protocol: Growth inhibition of the HCT-116 human tumor cell line is measured as a screen for anti-cancer activity. Cells are grown in 96 well plates and exposed to the test compound for 48 hours. Compounds are tested at a single concentration, which is 10^-5 M for most compounds. The reported endpoint is percent growth (GI% or GIPRCNT), where numbers from 0 - 100% represent growth inhibition, and numbers from -100% - 0 represent cell death. For example, a value of 40 represents 60% growth inhibition. […]
About 83,000 compounds went through this panel and 20% of them were active in at least one assay; those are over-represented in the sample as a whole.
ATTRIBUTE MEASURED: growth (%)
Report the figure in % without appending any unit label.

Please review the entries below; each comes with its answer.
MOLECULE | RESULT UNITS | VALUE MEASURED
Cc1cccc2nc3ccccc3c(Nc3ccc(NS(C)(=O)=O)cc3)c12 | % | 31.8
O=C(NCCN1CCCC1)n1cc(-c2ccncc2)c(-c2cc(O)cc(Cl)c2)n1 | % | 75.3
C=C(C)[C@@H]1CC[C@]2(C(=O)O)CC[C@]3(C)[C@H](CC[C@@H]4[C@@]5(C)C[C@@H](CC#Cc6ccc(C(C)=O)s6)[C@H](O)C(C)(C)[C@@H]5CC[C@]43C)[C@@H]12 | % | 26

Query :: Give its growth value. Item: O=C(O)C(CCc1ccccc1)NCc1ccccc1 (centres undefined)
Result :: 90.7

---

System: NCI-H522 lung
Assay: NCI-60 one-dose screen, 48 h
Settings: 10 µM unless noted
This is part of a sample that, as a whole, favours compounds with a hit. Of some 83,000 tested, about 20% had one in any assay. Active and inactive are the calls of the source. The calls were made as follows: active = growth percent below 10; inactive = the rest.
# output must be one of active, inactive

Query :: Please share the test call associated with `CC(=O)Nc1ccc(/C=N/N2CCCCCC2)cc1` .
Result :: inactive

Query :: Please share the test call associated with `Nc1c(Br)cc2c(c1Br)Cc1cc(Cl)ccc1-2` .
Result :: inactive

Query :: Please share the test call associated with `COc1ccc(Nc2nc(N)nc3c(=O)[nH]ccc23)cc1` .
Result :: inactive

Query :: Please share the test call associated with `CS(=O)(=O)c1ccc(C(=O)N/N=C/c2cccc3ccccc23)cc1` .
Result :: active

Query :: Please share the test call associated with C[C@@H]1CC2C3CCC4=CC(=O)C=C[C@]4(C)[C@@]3(Cl)[C@@H](O)C[C@]2(C)[C@@]1(OC(=O)c1ccco1)C(=O)CCl (some centres undefined) .
Result :: inactive

Query :: Please share the test call associated with `Cc1cccc(N=NC(=S)NNc2cccc(C)c2)c1` .
Result :: inactive

Query :: Please share the test call associated with `C=C[C@H]1CCC/C=C/[C@@H]2C[C@H](O)C[C@H]2[C@H](O)/C=C/C(=O)O1` .
Result :: active

Query :: Please share the test call associated with `CC(C)CCSc1nc(-c2ccc(F)cc2)c(C#N)c(N2CCN(C)CC2)n1` .
Result :: inactive

---

System: NCI-H23 lung
Experiment: NCI-60 one-dose screen, 48 h (100 = growth as untreated, 0 = no growth, -100 = all killed)
Conditions: 10 µM unless noted
Compounds without any hit were thinned out: in the full panel of roughly 83,000, 20% have a hit.
growth values, listed per item
Report the figure in % without appending any unit label.

COMPOUND | RESULT UNITS | growth
C=C1C(=O)O[C@H]2[C@H]1CC/C(COC(=O)NCc1cn(C)c3ccccc13)=C\CC[C@@]1(C)O[C@@H]21 | % | 38.4
CC(CN1CCN(CC(C)Nc2ccnc3cc(Cl)ccc23)CC1)Nc1ccnc2cc(Cl)ccc12 (centres undefined) | % | 62.3
Nc1c(N)c2ccccc2c2ccccc12 | % | 98.4
COc1cc(/C=N/NC(=O)Cn2c(-c3ccc(C)o3)nc3ccccc32)ccc1OCc1ccccc1 | % | 91.1
CC(C)(C)c1ccc(OC(=O)Nc2ccccc2)cc1 | % | 103

The record that follows has no growth shown yet.
Query :: Give its growth value. Item: COc1cc(C2CC(c3ccccc3)=NN2C=O)ccc1Oc1nc2c(c(=O)n(C)c(=O)n2C)n1C (centres undefined)
Result :: 79

---

Test system: NCI/ADR-RES ovarian
Test: NCI-60 one-dose screen, 48 h
Settings: 10 µM unless noted
The panel holds about 83,000 compounds, 20% with a hit somewhere; the sample as a whole holds those more often. The source made the active and inactive calls. How the source made its calls: active means growth percent below 10; inactive means the rest.
# output must be one of Yes = active, No = inactive

COMPOUND | CLASS
O=C(Cc1ccc([N+](=O)[O-])cc1)Oc1ccccc1 | No
NC(CCC(=O)NC(CS)C(=O)NCC(=O)O)C(=O)O (centres undefined) | No
O=C1OC(/C=C/c2ccccc2)=NC/1=C/c1ccccc1[N+](=O)[O-] | No

Query :: Please share the test call associated with Nc1ncnc2c1N=C(c1ccc3c(c1)OCO3)CC(c1ccc(Cl)cc1)N2 (centres undefined) .
Result :: No

Query :: Please share the test call associated with `O=C(Nc1cccc(C2=NCCN2)c1)c1ccc(N=Nc2ccc(C(=O)Nc3cccc(C4=NCCN4)c3)cc2)cc1` .
Result :: No

Query :: Please share the test call associated with `CCOC(=O)c1ccc2c(c1)[n+](=O)c(C(=O)c1ccc3ccccc3c1)c(C(F)(F)F)n2[O-]` .
Result :: Yes

Query :: Please share the test call associated with `COc1ccc2c(c1)sc1nc(-c3ccccc3)c(-c3cccc4ccccc34)n12` .
Result :: Yes

Query :: Please share the test call associated with `O=C(CCCCCCN1CC(=O)N2[C@@H](c3ccc(Cl)c(Cl)c3)c3[nH]c4ccccc4c3C[C@H]2C1=O)NO` .
Result :: No

Query :: Please share the test call associated with `COc1ccc2c(c1)C1=NN(C(=O)CO)[C@H](c3ccc(OC(F)(F)F)cc3)[C@@H]1CC2` .
Result :: No

Query :: Please share the test call associated with `COc1ccc(-n2nc(C(=O)Nc3ccc(F)cc3)nc2-c2cc(OC)c(OC)c(OC)c2)cc1` .
Result :: No

Query :: Please share the test call associated with `COc1ccc(/C=N/NC(N)=S)c(OC)n1` .
Result :: No

Query :: Please share the test call associated with `Cn1cnc([N+](=O)[O-])c1S(=O)(=O)Oc1cccc2ccccc12` .
Result :: No

Query :: Please share the test call associated with `CCN(CC)c1ccc(/C=C2/NC(=O)NC2=O)cc1` .
Result :: Yes

Query :: Please share the test call associated with `COc1ccc2nc(-c3ccc(-c4noc(-c5ccc(Cl)cc5)n4)cc3)[nH]c2c1` .
Result :: No

---

Test system: TK-10 renal
Assay: NCI-60 one-dose screen, 48 h (100 = growth as untreated, 0 = no growth, -100 = all killed)
Conditions: 10 µM unless noted
Compounds without any hit were thinned out: in the full panel of roughly 83,000, 20% have a hit.
growth values, listed per item
Report the figure in % without appending any unit label.

COMPOUND | growth / %
COc1ccc2[nH]cc(C3(c4c[nH]c5ccc(OC)cc45)C(=O)Nc4ccc(Cl)cc43)c2c1 | 107
c1csc(-c2cnc3nonc3n2)c1 | 128
OC(COCc1ccccc1)COCc1ccccc1 | 109
COc1cc(CN(c2ccc(C)cc2)C2OC(=O)c3ccccc32)cc(OC)c1OC (configuration not stated) | 93.3
CN1CCCN(CCNc2nccc(-c3c(-c4cccc(O)c4)nc4sccn34)n2)S1(=O)=O | 92.4

Query :: Recorded growth for `COc1ccc(NC(=O)Cn2c(=O)sc3c(-c4ccc(Cl)cc4)cc(-c4ccc(Cl)cc4)nc32)cc1` with TK-10 renal, please?
Result :: 97.3

---

Test system: OVCAR-4 ovarian
Assay: NCI-60 one-dose screen, 48 h (100 = growth as untreated, 0 = no growth, -100 = all killed)
Settings: 10 µM unless noted
About 83,000 compounds went through this panel and 20% of them were active in at least one assay; those are over-represented in the sample as a whole.
Consider the cut-off 80%. If the recorded growth is strictly smaller, the label is true (1); if not, the label is false (0).

Worked examples follow.
MOLECULE | ASSAY SYSTEM | CLASS
CC(C)c1cccc(C#N)c1 | OVCAR-4 ovarian | false (0)
O=C(/C=C/c1ccc(F)cc1)N1CCN(C(=O)/C=C/c2ccc(C(F)(F)F)cc2)CC1 | OVCAR-4 ovarian | false (0)

Query :: Could you please tell me whether growth recorded for `COc1cccc(-c2cc(-c3cccs3)c(C#N)c(=O)[nH]2)c1` is less than 80%?
Result :: false (0)

Query :: Could you please tell me whether growth recorded for `CCN(CC)c1cc(C)c(Cc2c(OC)ccc3ccccc23)cc1C` is less than 80%?
Result :: false (0)

Query :: Could you please tell me whether growth recorded for `Nc1c(Br)cc2c(c1Br)Cc1cc(Cl)ccc1-2` is less than 80%?
Result :: false (0)

Query :: Could you please tell me whether growth recorded for `Cc1ccncc1NC=O` is less than 80%?
Result :: false (0)

Query :: Could you please tell me whether growth recorded for `Cc1ccc(C(=O)CC(=O)C(F)(F)C(F)(F)C(F)(F)F)s1` is less than 80%?
Result :: false (0)

Query :: Could you please tell me whether growth recorded for `COc1cnc2c(c1)C(=O)c1c-2n(CCCN2CCCC2)c(=O)c2cc(Cl)ccc12` is less than 80%?
Result :: true (1)

Query :: Could you please tell me whether growth recorded for `CC(C)(C)c1cc(C[P+](c2ccccc2)(c2ccccc2)c2ccccc2)cc(C(C)(C)C)c1O` is less than 80%?
Result :: true (1)
